Molecular target: Thyroid hormone receptor alpha (Homo sapiens, UniProt P10827)
Sequence (P10827 whole entry): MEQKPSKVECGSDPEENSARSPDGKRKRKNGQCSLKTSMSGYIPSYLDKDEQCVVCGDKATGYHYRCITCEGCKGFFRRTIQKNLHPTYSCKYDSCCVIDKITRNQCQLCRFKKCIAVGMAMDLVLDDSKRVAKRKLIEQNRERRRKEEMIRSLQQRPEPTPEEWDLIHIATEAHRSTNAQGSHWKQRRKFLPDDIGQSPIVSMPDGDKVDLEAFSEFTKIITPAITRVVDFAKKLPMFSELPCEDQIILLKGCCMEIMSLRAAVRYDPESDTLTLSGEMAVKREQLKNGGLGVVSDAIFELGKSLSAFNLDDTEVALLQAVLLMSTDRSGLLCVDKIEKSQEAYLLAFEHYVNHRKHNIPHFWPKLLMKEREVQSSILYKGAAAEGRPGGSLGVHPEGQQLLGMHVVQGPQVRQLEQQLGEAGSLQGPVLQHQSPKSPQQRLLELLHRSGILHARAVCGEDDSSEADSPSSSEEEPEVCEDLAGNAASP
pKd: −log10 of the molar value.
ENDPOINT: pKd

> print(dat)
                            compound.string  endpoint  readout.value
1  Cc1cc(C[C@H](N)C(=O)O)cc(C)c1Oc1ccc(O)c(C(C)C)c1       pKd           8.01
